The values you see were collected from ChEMBL document CHEMBL3751805.

Test target: Cholinesterase (Homo sapiens)
Sequence (P06276 whole entry): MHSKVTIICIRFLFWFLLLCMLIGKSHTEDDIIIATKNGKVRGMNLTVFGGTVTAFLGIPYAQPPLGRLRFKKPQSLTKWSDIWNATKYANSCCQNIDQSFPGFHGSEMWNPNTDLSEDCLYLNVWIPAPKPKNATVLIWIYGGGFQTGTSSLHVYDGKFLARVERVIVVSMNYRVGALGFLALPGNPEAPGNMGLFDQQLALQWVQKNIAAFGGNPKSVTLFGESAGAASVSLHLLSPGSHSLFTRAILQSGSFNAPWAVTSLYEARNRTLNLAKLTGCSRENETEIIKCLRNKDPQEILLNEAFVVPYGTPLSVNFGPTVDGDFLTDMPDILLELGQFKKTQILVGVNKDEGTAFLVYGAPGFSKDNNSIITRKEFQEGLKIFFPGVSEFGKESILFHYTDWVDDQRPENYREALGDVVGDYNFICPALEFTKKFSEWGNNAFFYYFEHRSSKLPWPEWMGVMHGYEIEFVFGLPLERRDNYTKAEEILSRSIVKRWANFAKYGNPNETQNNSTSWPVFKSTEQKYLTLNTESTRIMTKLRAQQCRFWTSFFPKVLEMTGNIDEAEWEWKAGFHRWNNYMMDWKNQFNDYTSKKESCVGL
pIC50: −log10 of the molar value.
// label = criterion met if pIC50 is not less than 8, otherwise criterion not met

Req: Tell me whether pIC50 is at least 8 here: COc1cccc2cc(CN(CCCCCCCNc3c4c(nc5ccccc35)CCCCC4)Cc3cc4cccc(OC)c4o3)oc12
Resp: criterion met

Req: Tell me whether pIC50 is at least 8 here: O=C(NCCCCCCNc1c2c(nc3ccccc13)CCCC2)c1cc2ccccc2o1
Resp: criterion met

Req: Tell me whether pIC50 is at least 8 here: O=C(NCCCCCCCNc1c2c(nc3ccccc13)CCC2)c1cc2ccccc2o1
Resp: criterion not met

Req: Tell me whether pIC50 is at least 8 here: COc1cccc2cc(CNCCCCCCNc3c4c(nc5ccccc35)CCC4)oc12
Resp: criterion met

Req: Tell me whether pIC50 is at least 8 here: c1ccc2oc(CNCCCCCCNc3c4c(nc5ccccc35)CCC4)cc2c1
Resp: criterion met

Req: Tell me whether pIC50 is at least 8 here: COc1cccc2cc(CN(CCCCCCNc3c4c(nc5ccccc35)CCC4)Cc3cc4cccc(OC)c4o3)oc12
Resp: criterion met

Req: Tell me whether pIC50 is at least 8 here: c1ccc2oc(CNCCCCCCCNc3c4c(nc5ccccc35)CCC4)cc2c1
Resp: criterion met

Req: Tell me whether pIC50 is at least 8 here: c1ccc2oc(CN(CCCCCCCNc3c4c(nc5ccccc35)CCCCC4)Cc3cc4ccccc4o3)cc2c1
Resp: criterion not met

Req: Tell me whether pIC50 is at least 8 here: COc1cccc2cc(C(=O)NCCCCCCCNc3c4c(nc5ccccc35)CCC4)oc12
Resp: criterion not met

Req: Tell me whether pIC50 is at least 8 here: COc1cccc2cc(CNCCCCCCCNc3c4c(nc5ccccc35)CCCCC4)oc12
Resp: criterion met

Req: Tell me whether pIC50 is at least 8 here: COc1cccc2cc(C(=O)NCCCCCCCNc3c4c(nc5ccccc35)CCCCC4)oc12
Resp: criterion not met

Req: Tell me whether pIC50 is at least 8 here: COc1cccc2cc(CN(CCCCCCNc3c4c(nc5ccccc35)CCCCC4)Cc3cc4cccc(OC)c4o3)oc12
Resp: criterion met

Req: Tell me whether pIC50 is at least 8 here: c1ccc2oc(CNCCCCCCCNc3c4c(nc5ccccc35)CCCC4)cc2c1
Resp: criterion met

Req: Tell me whether pIC50 is at least 8 here: COc1cccc2cc(CN(CCCCCCNc3c4c(nc5ccccc35)CCCC4)Cc3cc4cccc(OC)c4o3)oc12
Resp: criterion met

Req: Tell me whether pIC50 is at least 8 here: COc1cccc2cc(C(=O)NCCCCCCNc3c4c(nc5ccccc35)CCC4)oc12
Resp: criterion not met

Req: Tell me whether pIC50 is at least 8 here: COc1cccc2cc(C(=O)NCCCCCCNc3c4c(nc5ccccc35)CCCCC4)oc12
Resp: criterion not met

Req: Tell me whether pIC50 is at least 8 here: COc1cccc2cc(CNCCCCCCNc3c4c(nc5ccccc35)CCCC4)oc12
Resp: criterion met

---

Test target: Acetylcholinesterase (Torpedo californica, UniProt P04058)
Sequence (P04058 whole entry): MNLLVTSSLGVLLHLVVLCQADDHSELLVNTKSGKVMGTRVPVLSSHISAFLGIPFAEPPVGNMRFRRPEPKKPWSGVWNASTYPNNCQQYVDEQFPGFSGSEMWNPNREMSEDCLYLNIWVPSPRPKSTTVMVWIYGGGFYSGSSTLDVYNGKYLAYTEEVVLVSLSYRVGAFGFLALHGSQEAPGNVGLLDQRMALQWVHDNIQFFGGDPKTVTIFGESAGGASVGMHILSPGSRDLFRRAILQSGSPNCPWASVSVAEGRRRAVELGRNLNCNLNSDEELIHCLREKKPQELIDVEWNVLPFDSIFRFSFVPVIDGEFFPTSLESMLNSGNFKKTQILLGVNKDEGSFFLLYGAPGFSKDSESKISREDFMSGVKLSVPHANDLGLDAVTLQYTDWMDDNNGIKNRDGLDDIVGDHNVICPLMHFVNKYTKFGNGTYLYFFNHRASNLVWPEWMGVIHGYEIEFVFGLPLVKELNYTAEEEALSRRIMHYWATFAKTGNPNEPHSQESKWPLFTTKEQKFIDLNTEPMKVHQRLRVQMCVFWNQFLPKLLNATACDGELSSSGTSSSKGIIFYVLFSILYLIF
Measurement protocol: Competitive inhibition of Torpedo californica AChE using ATCh as substrate preincubated for 90 mins followed by substrate addition by potentiometric titration method
Design: species or system Tetronarce californica
Measurement type: Ki (nM)
Only the number, expressed in nM, is required.

Req: Requested read-out Ki, target or system Acetylcholinesterase (Torpedo californica, UniProt P04058), entry c1ccc2oc(CNCCCCCCCNc3c4c(nc5ccccc35)CCCC4)cc2c1
Resp: 2.2
